Experiment: ATG_ISRE_CIS: Attagene CIS-FACTORIAL HepG2 Assay for human Interferon Regulatory Factor 1 (IRF1) binding to an Interferon-Stimulated Response Element (ISRE) (AID 2282948)
Settings: HepG2 ISRE cis-reporter (Attagene), mRNA transcription readout; actives raise or lower the signal
Active and inactive are the calls of the source. How the source made its calls: active means hit-call score of the fitted dose curve at least 0.9, where 1 is the maximum; inactive means score below 0.9.
Choose one outcome from this list and give only that: yes (1) (active), no (0) (inactive)

// query How was `O=C(O)C(F)(F)C(F)(F)C(=O)O` classified in this test?
// result no (0)

// query How was `CCOP(=S)(OCC)SCSCC` classified in this test?
// result no (0)

// query How was `CCOP(=S)(S)OCC` classified in this test?
// result no (0)

// query How was `O=P(Oc1ccccc1)(Oc1ccccc1)Oc1ccccc1` classified in this test?
// result yes (1)

// query How was `NC(=O)C(F)(F)C(F)(F)F` classified in this test?
// result no (0)

// query How was `O=C(O)C(F)(F)OC(F)(F)C(F)(F)OC(F)(F)F` classified in this test?
// result no (0)

// query How was `CCCCc1ccc(O)cc1` classified in this test?
// result no (0)

// query How was `c1cc2c3c(cccc3c1)CC2` classified in this test?
// result no (0)

// query How was `N#Cc1cc([N+](=O)[O-])ccc1N` classified in this test?
// result no (0)

// query How was `CN(C)C(=O)Cl` classified in this test?
// result no (0)

// query How was `CCNc1nc(Cl)nc(NC(C)(C)C)n1` classified in this test?
// result no (0)

// query How was `O=[N+]([O-])c1ccc(Cl)c(Cl)c1` classified in this test?
// result no (0)

// query How was `CCCCN(CCCC)SN(C)C(=O)Oc1cccc2c1OC(C)(C)C2` classified in this test?
// result no (0)

// query How was `c1ccc(OP(Oc2ccccc2)Oc2ccccc2)cc1` classified in this test?
// result no (0)

====

Experiment: Tanguay_ZF_120hpf_AXIS: Oregon State University Tanguay Lab 120 Hour Post-fertilization zebrafish Assay for Axial Malformation (AID 2284398)
Active and inactive are the calls of the source. Rule for the calls: active = hit-call score of the fitted dose curve at least 0.9, where 1 is the maximum; inactive = score below 0.9.
Choose one outcome from this list and give only that: active, inactive

// query How was `OCC(F)(F)OC(F)(F)C(F)(F)OC(F)(F)C(F)(F)OC(F)(F)CO` classified in this test?
// result active

// query How was `O=C(O)C=CC(F)(C(F)(F)F)C(F)(F)F` classified in this test?
// result inactive

// query How was `OCC(F)(F)OC(F)(F)C(F)(F)OC(F)(F)CO` classified in this test?
// result inactive

// query How was `OCC(F)(F)OC(F)(F)C(F)(F)OC(F)(F)C(F)(F)OC(F)(F)F` classified in this test?
// result inactive

// query How was COC(=O)C(F)(F)C(F)(F)OC(F)(C(F)(F)F)C(F)(F)OC(F)=C(F)F (configuration not stated) classified in this test?
// result inactive

// query How was `O=C(O)C(F)(F)OC(F)(F)C(F)(F)OC(F)(F)F` classified in this test?
// result inactive

// query How was FC(F)(F)C(F)(C(F)(F)F)C(F)(F)C(F)(F)CC1CO1 (configuration not stated) classified in this test?
// result inactive

====

Assay: CCTE_Padilla_ZF_Score.Craniofacial: CCTE's 144 Hour Post-fertilization zebrafish Assay Score for Craniofacial Malformation, Padilla Lab (AID 2284405)
The source made the active and inactive calls. How the source made its calls: active means hit-call score of the fitted dose curve at least 0.9, where 1 is the maximum; inactive means score below 0.9.
Choose one outcome from this list and give only that: Yes for active, No for inactive

// query How was `O=C(O)C=CC(F)(C(F)(F)F)C(F)(F)F` classified in this test?
// result No

// query How was `O=S(=O)(F)C(F)(F)C(F)(F)C(F)(F)C(F)(F)C(F)(F)C(F)(F)C(F)(F)C(F)(F)F` classified in this test?
// result No

// query How was O=C(O)C(F)(OC(F)(F)C(F)(F)C(F)(F)F)C(F)(F)F (stereo unspecified) classified in this test?
// result No

// query How was `C=CC(=O)OCC(F)(F)C(F)F` classified in this test?
// result No

// query How was `OCC(F)(F)OC(F)(F)C(F)(F)OC(F)(F)C(F)(F)OC(F)(F)F` classified in this test?
// result Yes

// query How was `O=C(O)C(F)(F)C(F)(F)C(=O)O` classified in this test?
// result No

====

Read-out: growth arrest and DNA damage 45 (GADD45G), GADD45G (gene 10912)
Assay: LTEA_HepaRG_GADD45G: Life Technologies and Expression Analysis (LTEA) Assay for growth arrest and DNA damage 45 (GADD45G) using HepaRG (AID 2283499)
Conditions: mRNA level, 48 h; actives raise or lower the signal
Experimental: LTEA_HepaRG is a cell based, multiplexed-readout assay that uses HepaRG, a human liver cell line, with measurements taken at 48 hours after chemical dosing on a 96-well plate.LTEA_HepaRG_GADD45G is one of 102 assay component(s) measured in the LTEA HepaRG cell culture assay. It is a marker of Cell proliferation, survival, death.Data from the assay component LTEA_HepaRG_GADD45G was analyzed into 1 endpoint. […]
Active and inactive are the calls of the source. How the source made its calls: active means hit-call score of the fitted dose curve at least 0.9, where 1 is the maximum; inactive means score below 0.9.

| smi | outcome |
| --- | --- |
| CSC(C)(C)C=NO | inactive |
| CCOS(=O)(=O)OCC | inactive |
| CCOC(=O)c1ccccc1C(=O)OCC | inactive |

====

Assay: CCTE_Mundy_HCI_Cortical_NOG_NeuriteLength: CCTE's Neurite Outgrowth Assay in rat cortical cells for Neurite Length, Mundy Lab (AID 2284213)
Active and inactive are the calls of the source. How the source made its calls: active means hit-call score of the fitted dose curve at least 0.9, where 1 is the maximum; inactive means score below 0.9.
Choose one outcome from this list and give only that: active, inactive

// query How was `CCOc1ccc(C(C)(C)COCc2cccc(Oc3ccccc3)c2)cc1` classified in this test?
// result inactive

// query How was O=P1(N(CCCl)CCCl)NCCCO1 (configuration not stated) classified in this test?
// result inactive

// query How was CCC1(c2ccccc2)C(=O)N=C(O)NC1=O (configuration not stated) classified in this test?
// result inactive

// query How was `CCOP(=S)(OCC)SCSCC` classified in this test?
// result inactive

// query How was CCCCC(CC)COP(=O)(Oc1ccccc1)Oc1ccccc1 (configuration not stated) classified in this test?
// result inactive

// query How was O=C(O)C(F)(OC(F)(F)C(F)(F)C(F)(F)F)C(F)(F)F (configuration not stated) classified in this test?
// result inactive

// query How was `CO/N=C(/C(=O)OC)c1ccccc1COc1ccccc1C` classified in this test?
// result active

====

Assay: BSK_3C_SRB: Viability Assessment in the BioMAP Diversity Plus: 3C Assay (AID 2283023);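 further: cells read 24 h after compound dosing; fitted both ways against DMSO so a hit may be signal rise or drop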
Settings: primary human endothelial cells (HUVEC)
Calls of active or inactive are those of the source. The calls were made as follows: active = hit-call score of the fitted dose curve at least 0.9, where 1 is the maximum; inactive = score below 0.9.
Choose one outcome from this list and give only that: active, inactive

// query How was `CCN(CC)c1ccccc1` classified in this test?
// result inactive

// query How was CCOP(=S)(Oc1ccc([N+](=O)[O-])cc1)c1ccccc1 (stereo unspecified) classified in this test?
// result inactive

// query How was CC(Cc1ccc(OCC(=O)O)cc1)NCC(O)c1csc(C(F)(F)F)n1 (stereo unspecified) classified in this test?
// result inactive

// query How was `O=C(O)C(Cl)Cl` classified in this test?
// result inactive

// query How was `O=S(=O)(F)C(F)(F)C(F)(F)C(F)(F)C(F)(F)C(F)(F)C(F)(F)C(F)(F)C(F)(F)F` classified in this test?
// result inactive

// query How was O=S1(=O)OCC2C(CO1)C1(Cl)C(Cl)=C(Cl)C2(Cl)C1(Cl)Cl (stereo unspecified) classified in this test?
// result active

====

Read-out: Vascular cell adhesion molecule 1 (VCAM1), VCAM1 (gene 7412)
Experiment: BSK_LPS_VCAM1: BioMAP Diversity Plus: LPS Assay for Vascular cell adhesion molecule 1 (VCAM1) Biomarker Activity (AID 2283086)
Conditions: primary human HUVEC with PBMC; actives raise or lower the signal
Active and inactive are the calls of the source. The calls were made as follows: active = hit-call score of the fitted dose curve at least 0.9, where 1 is the maximum; inactive = score below 0.9.
Choose one outcome from this list and give only that: Yes for active, No for inactive

// query How was `O=C(O)C(F)(F)OC(F)(F)C(F)(F)OC(F)(F)C(=O)O` classified in this test?
// result No

// query How was `Nc1ccc(Cl)cc1` classified in this test?
// result No

// query How was `NC(=O)C(F)(F)C(F)(F)F` classified in this test?
// result No

// query How was `COP(=O)(O)OC` classified in this test?
// result No

// query How was COC(=O)C(F)(F)C(F)(F)OC(F)(C(F)(F)F)C(F)(F)OC(F)=C(F)F (stereo not given) classified in this test?
// result No

// query How was `CCCCN(CCCC)SN(C)C(=O)Oc1cccc2c1OC(C)(C)C2` classified in this test?
// result Yes

// query How was `ClC(Cl)(Cl)c1ccccc1` classified in this test?
// result No

// query How was `Nc1ccc2ccccc2c1` classified in this test?
// result No

// query How was O=P1(N(CCCl)CCCl)NCCCO1 (stereo not given) classified in this test?
// result No

// query How was `CCOP(=S)(OCC)SCSc1ccc(Cl)cc1` classified in this test?
// result Yes

// query How was `CCCCCCCc1ccc(O)cc1` classified in this test?
// result Yes

// query How was `OCC(F)(F)OC(F)(F)C(F)(F)OC(F)(F)C(F)(F)OC(F)(F)CO` classified in this test?
// result No

// query How was `N#Cc1cc([N+](=O)[O-])ccc1N` classified in this test?
// result No

// query How was FC(F)(F)C(F)(C(F)(F)F)C(F)(F)C(F)(F)CC1CO1 (stereo not given) classified in this test?
// result No

// query How was O=C(O)C1C(C(=O)O)C2(Cl)C(Cl)=C(Cl)C1(Cl)C2(Cl)Cl (stereo not given) classified in this test?
// result No

// query How was `COP(N)(=S)OC` classified in this test?
// result No

// query How was `O=[N+]([O-])c1ccccc1` classified in this test?
// result No

// query How was `CC(C)(C)c1ccccc1OP(=O)(Oc1ccccc1)Oc1ccccc1` classified in this test?
// result Yes

// query How was `c1nc[nH]n1` classified in this test?
// result No

// query How was `O=C(O)C(Cl)Cl` classified in this test?
// result No

// query How was `C=CC(=O)OCC(CC)(COC(=O)C=C)COC(=O)C=C` classified in this test?
// result Yes

// query How was `CCN(CC)c1ccccc1` classified in this test?
// result No

// query How was `CC(Cl)(Cl)C(=O)O` classified in this test?
// result No

// query How was `COCCOCCO` classified in this test?
// result No

// query How was `O=c1ssc(Cl)c1Cl` classified in this test?
// result Yes

// query How was `COP(=O)(CCC(=O)NCO)OC` classified in this test?
// result No

// query How was `Cc1cccc(N)c1` classified in this test?
// result No

// query How was ClC1=C(Cl)C2(Cl)C3C(Cl)C(Cl)CC3C1(Cl)C2(Cl)Cl (stereo not given) classified in this test?
// result Yes

// query How was `Cc1c([N+](=O)[O-])cc2c(c1[N+](=O)[O-])C(C)(C)CC2(C)C` classified in this test?
// result No

// query How was `O=[N+]([O-])c1ccc(Cl)c(Cl)c1` classified in this test?
// result No

Source listed as PubChem BioAssay (EPA / NIEHS).
